Numbers sourced from ChEMBL document CHEMBL1136887.

Target: Carbonic anhydrase 9 (Homo sapiens)
Assay: Inhibition of human recombinant carbonic anhydrase 9 catalytic domain by stopped flow CO2 hydration method
pKi: −log10 of the molar value.
PROPERTY NAME: pKi

Solved entries:
# COMPOUND, pKi
records = [
    ("COc1cc2c(cc1OC)C(c1cccc([N+](=O)[O-])c1)N(S(N)(=O)=O)CC2 (configuration not stated)", 5.19),
    ("COc1cc2c(cc1OC)C(c1ccc(Br)cc1)N(S(N)(=O)=O)CC2 (configuration not stated)", 5.09),
    ("COc1cc2c(cc1OC)C(c1ccc(Cl)cc1)N(S(N)(=O)=O)CC2 (configuration not stated)", 5.12),
]

a. COc1cc2c(cc1OC)C(c1ccc([N+](=O)[O-])cc1)N(S(N)(=O)=O)CC2 (configuration not stated)
b. COc1cc2c(cc1OC)C(c1ccc(C)cc1)N(S(N)(=O)=O)CC2 (configuration not stated)
Compare pKi: is it lower for a or for b ? # reply format: chosen label
b

1. COc1cc2c(cc1OC)C(c1cccc(N)c1)N(S(N)(=O)=O)CC2 (configuration not stated)
2. COc1cc2c(cc1OC)C(c1ccc(C#N)cc1)N(S(N)(=O)=O)CC2 (configuration not stated)
Compare pKi: is it lower for 1 or for 2 ? # reply format: chosen label
1
